# Tested on: SNB-19 CNS
# experimental-details: NCI tumour cell line growth inhibition, 48 h
quantity-measured: log10 of TGI (log10 of the value in µM)
Plainly stated, the numbers are log10 of TGI given in µM.

Query block: log10 of TGI lookup needed for "CCOC(=O)/C=C/C1=C(Br)[C@@]2(C)CC[C@@H]3c4ccc(O)cc4CC[C@H]3[C@@H]2C1" , thanks.
Result block: 1.48

Query block: Consider the molecule "CCN1C(=O)N[C@H]2[C@@H]3NC(=O)c4ccc(Cl)n4[C@@H]3C[C@]21O" and give its measured log10 of TGI.
Result block: 0.97

Query block: Endpoint output: log10 of TGI of "NCCNc1nc2ccc(F)cc2c2c(=O)c3cc(F)ccc3sc12" . Value?
Result block: 0.62

Query block: Request the reported log10 of TGI associated with "CCN(CC)CCOc1ccccc1-n1c(C)ccc1-c1ccccc1"
Result block: 1.50

Query block: Item under review: O=C(Oc1c(Cl)c(Cl)c(Cl)c(Cl)c1Cl)C1CCCN1C(=O)OCc1ccccc1 (centres undefined) . Reported log10 of TGI?
Result block: 1.12

Query block: # input molecule: "COc1ccc2c(ccc3oc([N+](=O)[O-])cc32)c1" ; wanted: its log10 of TGI
Result block: 0.47

====

# Test system: 786-0 renal
# experimental-details: NCI tumour cell line growth inhibition, 48 h
quantity-measured: TGI

Query block: Which TGI is reported for this molecule? "COc1ccc2c(ccc3oc([N+](=O)[O-])cc32)c1"
Result block: 0.667 µM

Query block: Endpoint output: TGI of "Nc1ccccc1-n1c2c(c3ccccc3c1=O)C(=O)c1ccccc1-2" . Value?
Result block: 55.6 µM

Query block: Value lookup for TGI; key = "COc1ccc(/C=C2/C(=O)N(/C=C3\C(=O)Oc4ccccc4C3=O)C(=NC(C)=O)N2C)cc1OC"
Result block: > 100 µM

====

# Test system: NCI-H23 lung
# experimental-details: NCI tumour cell line growth inhibition, 48 h
quantity-measured: TGI

Query block: I am curious: what TGI value has been reported for "COc1cc2c(cc1OC)C(Cc1cc(Br)c(OC)c(OC)c1)=[N+](C)CC2" ?
Result block: > 100 µM

Query block: Which TGI is listed for "O=C(Cc1ccccc1)Nc1nc2ccc(Cl)cc2c2nc(-c3ccco3)nn12" ?
Result block: > 100 µM

Query block: Fill blank: measured TGI of the molecule "CCN1Cc2c(/C=C/c3ccccc3)nc3ccc(OC)cc3c2N(c2cccc(Cl)c2)C1" is ____.
Result block: 4.2 µM

Query block: Quick check: TGI of N#CC1=C(N)Oc2c(ccc3cccnc23)C1c1ccccc1 (stereo unspecified) ?
Result block: > 28.5 µM

Query block: Entry under review: "C=C(CN(C)C)C(=O)c1ccccc1Cl" . Reported TGI?
Result block: 54.6 µM

Query block: Look up TGI for this molecule: "O=[N+]([O-])c1ccc2nc(/C=C(\O)c3ccccc3)c(NC34CC5CC(CC(C5)C3)C4)nc2c1"
Result block: > 10 µM

====

# System: NCI-H23 lung
# experimental-details: NCI tumour cell line growth inhibition, 48 h; in the data active means GI50 below about 0.43 µM; inactive means the rest
Assign a class; possible classes are yes = active, no = inactive

Query block: Tell me the recorded outcome of this test for "CN1CCC(n2cnc(-c3ccc(F)cc3)c2-c2ccnc(Nc3ccccc3)n2)CC1" .
Result block: no

Query block: Hello, I am checking results. What call was entered for "C=C(C)[C@@H]1CC[C@]2(COC(=O)c3ccccc3C(=O)O)CC[C@]3(C)[C@H](CC[C@@H]4[C@@]5(C)CC[C@H](OC(=O)c6ccccc6C(=O)O)C(C)(C)[C@@H]5CC[C@]43C)[C@@H]12" ?
Result block: no

Query block: Short answer needed: outcome of this test for CC12OC(C(=O)C13CCC3)C1C(=O)c3c(O)ccc(O)c3C(=O)C12 (stereo unspecified) ?
Result block: no

Query block: Kindly provide the recorded test outcome for the following compound: "Nc1ncc(-c2ccc3ncnc(N4CCc5cc(F)c(Cl)cc54)c3c2)cc1C(F)(F)F"
Result block: no

Query block: How was COc1ccc(/C=N/C2=NNC(C)(c3ccccc3O)N2C(Cc2c[nH]c3ccccc23)C(=O)O)cc1 (stereo unspecified) classified in this test?
Result block: no

Query block: Please state the recorded outcome for this compound: "CN1CCN(c2ccc(NC(=O)c3cncnc3Nc3ccc4c(ccn4Cc4cccc(F)c4)c3)cc2)CC1"
Result block: no

Query block: Hi, do you know how "COc1ccc(-n2nc(C(=O)c3ccccc3)c3nn4c(=O)cc(-c5ccccc5)nc4nc32)cc1" came out in this test?
Result block: no

Query block: Could you check what this test reported for "Cc1cc(O)cc(-c2nn(C)cc2-c2cc(N3CCOCC3)nc(-c3cccnc3)n2)c1" ?
Result block: no

Query block: Returns: the outcome recorded for "Nc1nc(N)c2cc(S(=O)(=O)c3ccccc3)ccc2n1" in this assay.
Result block: no

Query block: Assay result, entry "CCSc1nc(N)c(C#N)c(-c2ccc(OC)c(OC)c2)c1C#N" — outcome?
Result block: no

Query block: // outcome(item) with item = "COc1ccc(-c2cncn2-c2ccc(-c3nc4cc(OC)c(OC)c(OC)c4s3)cc2)cc1N"
Result block: no

Query block: How was "COc1ccc2cn3c4ccc(O)cc4[nH]c(=O)c3c2c1" classified in this test?
Result block: yes

Query block: Test call for this compound, please: "CCCCc1n(Cc2ccc3ccccc3n2)cc[n+]1Cc1ccc2ccccc2c1"
Result block: no

Query block: For "NCCNc1nc2ccc(F)cc2c2c(=O)c3cc(F)ccc3sc12" , which call appears in the assay record?
Result block: no

Query block: Fill in: this test's call for "Cc1ccc(Nn2c(SCC(=O)Nc3nc(-c4ccccc4)cs3)nc(C)c2C)cc1" is ___
Result block: no

Query block: What was the test verdict on "COC(=O)C[C@@H]1CC=CC(=O)/C1=C(O)/C=C/c1ccccc1" ?
Result block: no

Query block: Fill in: this test's call for "COc1cc(-c2cn(-c3ccc(F)cc3)c(=O)[nH]2)cc(OC)c1OC" is ___
Result block: no

Query block: What classification did COC(=O)C(Br)(C(=O)OC)C(Br)C(Br)C(Br)c1ccccc1 (stereo unspecified) end up with in this test?
Result block: no

Query block: I would be grateful if you could indicate the recorded call for NC1=C(/C(N)=N/O)C(c2ccccc2)c2ccc3ccccc3c2O1 (stereo unspecified) .
Result block: no

Query block: Which outcome was entered for the compound CCN(CC)CCC(CNc1c(C)cnc2cc(Cl)ccc12)c1ccc(Cl)c(Cl)c1 (stereo unspecified) in this test?
Result block: no

Query block: Would you mind telling me which call this test gave O=C(Oc1c(Cl)c(Cl)c(Cl)c(Cl)c1Cl)C1CCCN1C(=O)OCc1ccccc1 (stereo unspecified) ?
Result block: no
